Test system: Escherichia coli
Experiment description: Antimicrobial activity against Escherichia coli NCIM 2574 assessed as growth inhibition by agar streak dilution method
Type: functional

- Compound: "NC(CCC(=O)n1c(Cc2ccccc2)nc2ccccc2c1=O)C(=O)O (stereo not given)"
  Unit string: "µg/mL"
  Prefix operator: ">"
  MIC: 100
- Compound: "NC(CCC(=O)n1c(OCc2ccccc2Cl)nc2ccccc2c1=O)C(=O)O (stereo not given)"
  Unit string: "µg/mL"
  Prefix operator: "="
  MIC: 50
- Compound: "NC(CCC(=O)n1c(-c2ccc(Cl)cc2)nc2ccccc2c1=O)C(=O)O (stereo not given)"
  Unit string: "µg/mL"
  Prefix operator: "="
  MIC: 15
- Compound: "NC(CCC(=O)n1c(-c2cc(F)cc(F)c2)nc2ccccc2c1=O)C(=O)O (stereo not given)"
  Unit string: "µg/mL"
  Prefix operator: "="
  MIC: 50
- Compound: "Cc1ccccc1-c1nc2ccccc2c(=O)n1C(=O)CCC(N)C(=O)O (stereo not given)"
  Unit string: "µg/mL"
  Prefix operator: "="
  MIC: 50
- Compound: "COc1ccc(-c2nc3ccccc3c(=O)n2C(=O)CCC(N)C(=O)O)cc1 (stereo not given)"
  Unit string: "µg/mL"
  Prefix operator: "="
  MIC: 20
- Compound: "NC(CCC(=O)n1c(-c2ccccc2)nc2ccccc2c1=O)C(=O)O (stereo not given)"
  Unit string: "µg/mL"
  Prefix operator: "="
  MIC: 50
- Compound: "NC(CCC(=O)n1c(-c2cc(F)ccc2F)nc2ccccc2c1=O)C(=O)O (stereo not given)"
  Unit string: "µg/mL"
  Prefix operator: "="
  MIC: 30
- Compound: "NC(CCC(=O)n1c(-c2ccc(F)c(F)c2F)nc2ccccc2c1=O)C(=O)O (stereo not given)"
  Unit string: "µg/mL"
  Prefix operator: "="
  MIC: 12
- Compound: "NC(CCC(=O)n1c(-c2ccc([N+](=O)[O-])cc2)nc2ccccc2c1=O)C(=O)O (stereo not given)"
  Unit string: "µg/mL"
  Prefix operator: "="
  MIC: 25

Taken from ChEMBL document CHEMBL3044707.
